Source of measurements: PubChem BioAssay AID1963982

Test system: 313798-341-R-J2-PDC spheroids, viability
ASSAY PROCEDURE: Anticancer human tumor 313798-341-R-J2-PDC patient-derived cervical squamous cell carcinoma cell line growth inhibition [PI3K]
ASSAY CONDITIONS: second compound 0.00316 µM; first compound 0.1 µM; active compounds read low; spheroids with HUVEC and MSC
MEASURED PROPERTY: viability, T/C (%)
Kindly provide the numeric value in % only, without the unit symbol.

Consider the reported viability, T/C for these molecules:
CC(C)NCC(C(=O)N1CCN(c2ncnc3c2C(C)CC3O)CC1)c1ccc(Cl)cc1 (stereo not given) + COc1c(OCCCN2CCOCC2)ccc2c3n(c(=NC(=O)c4cnc(N)nc4)nc12)CCN3	99
C=CC(=O)N1CCN(c2nc(=O)n(-c3c(C)ccnc3C(C)C)c3nc(-c4c(O)cccc4F)c(F)cc23)C(C)C1 (stereo not given) + COc1c(OCCCN2CCOCC2)ccc2c3n(c(=NC(=O)c4cnc(N)nc4)nc12)CCN3	103
C#Cc1c(F)ccc2cc(O)cc(-c3ncc4c(N5CC6CCC(C5)N6)nc(OCC56CCCN5CC(F)C6)nc4c3F)c12 (stereo not given) + COc1c(OCCCN2CCOCC2)ccc2c3n(c(=NC(=O)c4cnc(N)nc4)nc12)CCN3	103

stdin: Record request: viability, T/C value, item CC1(C)CCC(Nc2ncc(C(F)(F)F)c(-c3c[nH]c4c(P(C)(C)=O)c(C#N)ccc34)n2)CN1 (stereo not given) + COc1c(OCCCN2CCOCC2)ccc2c3n(c(=NC(=O)c4cnc(N)nc4)nc12)CCN3
stdout: 42.3

stdin: Can you share its viability, T/C? I mean this molecule: C[C@@H](NC(=O)c1ncnc(N)c1Cl)c1ncc(C(=O)Nc2cc(C(F)(F)F)c(Cl)cn2)s1 + CC(Nc1ccc2c(c1)OCCn1cc(N3C(=O)OCC3C(F)F)nc1-2)C(N)=O
stdout: 106

###

Tested on: 313798-341-R-J2-PDC spheroids, viability
ASSAY PROCEDURE: Anticancer human tumor 313798-341-R-J2-PDC cell line growth inhibition [PI3K];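 also: spheroids exposed to compounds for seven days; 100% = DMSO vehicle control viability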
ASSAY CONDITIONS: second compound 1 µM; first compound 0.01 µM; active compounds read low; spheroids with HUVEC and MSC
MEASURED PROPERTY: viability, T/C (%)
Please give a number only; it is taken to be in %.

Example compounds with recorded viability, T/C:
Cn1ncnc1[C@H]1c2n[nH]c(=O)c3cc(F)cc(c23)N[C@@H]1c1ccc(F)cc1 + CC(Nc1ccc2c(c1)OCCn1cc(N3C(=O)OCC3C(F)F)nc1-2)C(N)=O	48.1
CCN1CCN(Cc2ccc(Nc3ncc(F)c(-c4cc(F)c5nc(C)n(C(C)C)c5c4)n3)nc2)CC1 + CC(Nc1ncnc2nc[nH]c12)c1cc2cccc(Cl)c2c(=O)n1-c1ccccc1	95.3

Proceeding to the next compound to report its viability, T/C.
stdin: What reported viability, T/C corresponds to CC(=O)c1c(C)c2cnc(Nc3ccc(N4CCNCC4)cn3)nc2n(C2CCCC2)c1=O + CC(Nc1ncnc2nc[nH]c12)c1cc2cccc(Cl)c2c(=O)n1-c1ccccc1 on 313798-341-R-J2-PDC spheroids, viability?
stdout: 106

###

Tested on: 313798-341-R-J2-PDC spheroids, viability
ASSAY PROCEDURE: Anticancer human tumor 313798-341-R-J2-PDC cell line growth inhibition [PI3K];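 also: spheroids exposed to compounds for seven days; 100% = DMSO vehicle control viability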
ASSAY CONDITIONS: second compound 3.16 µM; first compound 0.316 µM; active compounds read low; spheroids with HUVEC and MSC
MEASURED PROPERTY: viability, T/C (%)
I only need the number, in %, no unit after it.

CCN1CCN(Cc2ccc(Nc3ncc(F)c(-c4cc(F)c5nc(C)n(C(C)C)c5c4)n3)nc2)CC1 + CC(Nc1ncnc2nc[nH]c12)c1cc2cccc(Cl)c2c(=O)n1-c1ccccc1	108

stdin: Need viability, T/C of CCCS(=O)(=O)Nc1ccc(F)c(C(=O)c2c[nH]c3ncc(-c4ccc(Cl)cc4)cc23)c1F + Cc1nc(NC(=O)N2CCCC2C(N)=O)sc1-c1ccnc(C(C)(C)C(F)(F)F)c1 , thanks.
stdout: 56.5

stdin: For the compound shown here, CNC(=O)c1ccc(N2C(=S)N(c3ccc(C#N)c(C(F)(F)F)c3)C(=O)C2(C)C)cc1F + Cc1nc(NC(=O)N2CCCC2C(N)=O)sc1-c1ccnc(C(C)(C)C(F)(F)F)c1 , give the reported viability, T/C.
stdout: 65.9

stdin: What does the record list as viability, T/C for Cn1ncc(Cl)c1-c1cc(C(=O)NC(CN)Cc2cccc(F)c2)sc1Cl (stereo unspecified) + Cc1nc(NC(=O)N2CCCC2C(N)=O)sc1-c1ccnc(C(C)(C)C(F)(F)F)c1 ?
stdout: 46

stdin: Look up viability, T/C for this compound: CC1(C)CCC(Nc2ncc(C(F)(F)F)c(-c3c[nH]c4c(P(C)(C)=O)c(C#N)ccc34)n2)CN1 (stereo unspecified) + CC(Nc1ncnc2nc[nH]c12)c1cc2cccc(Cl)c2c(=O)n1-c1ccccc1
stdout: 42.7

###

Tested on: 313798-341-R-J2-PDC spheroids, viability
ASSAY PROCEDURE: Anticancer human tumor 313798-341-R-J2-PDC cell line growth inhibition [PI3K];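 also: spheroids exposed to compounds for seven days; 100% = DMSO vehicle control viability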
ASSAY CONDITIONS: second compound 1 µM; first compound 0.316 µM; active compounds read low; spheroids with HUVEC and MSC
// classify: if (viability, T/C < 40%) rule met else rule not met

C#Cc1c(F)ccc2cc(O)cc(-c3ncc4c(N5CC6CCC(C5)N6)nc(OCC56CCCN5CC(F)C6)nc4c3F)c12 (stereo unspecified) + COc1c(OCCCN2CCOCC2)ccc2c3n(c(=NC(=O)c4cnc(N)nc4)nc12)CCN3	rule met

stdin: In the record for CC(C)NCC(C(=O)N1CCN(c2ncnc3c2C(C)CC3O)CC1)c1ccc(Cl)cc1 (stereo unspecified) + CC(Nc1ncnc2nc[nH]c12)c1cc2cccc(Cl)c2c(=O)n1-c1ccccc1 , is viability, T/C less than 40%?
stdout: rule not met

stdin: Find out if reported viability, T/C for C[C@@H](NC(=O)c1ncnc(N)c1Cl)c1ncc(C(=O)Nc2cc(C(F)(F)F)c(Cl)cn2)s1 + CC(Nc1ncnc2nc[nH]c12)c1cc2cccc(Cl)c2c(=O)n1-c1ccccc1 is less than 40%
stdout: rule not met

stdin: Problem: For the compound Cn1nccc1Nc1nccc(-c2ccn(C(CO)c3ccc(Cl)c(F)c3)c(=O)c2)n1 (stereo unspecified) + CC(Nc1ccc2c(c1)OCCn1cc(N3C(=O)OCC3C(F)F)nc1-2)C(N)=O , is viability, T/C under 40%?
stdout: rule not met

stdin: Hi there! Is viability, T/C for CC(Cn1ccc(-c2ccc(C#N)c(Cl)c2)n1)NC(=O)c1cc(C(C)O)[nH]n1 (stereo unspecified) + Cc1nc(NC(=O)N2CCCC2C(N)=O)sc1-c1ccnc(C(C)(C)C(F)(F)F)c1 below 40%, do you know?
stdout: rule not met

stdin: viability, T/C strictly < 40% for this compound? CCN1CCN(Cc2ccc(Nc3ncc(F)c(-c4cc(F)c5nc(C)n(C(C)C)c5c4)n3)nc2)CC1 + CC(Nc1ccc2c(c1)OCCn1cc(N3C(=O)OCC3C(F)F)nc1-2)C(N)=O
stdout: rule not met

stdin: Problem: For the compound CNC(=O)c1ccc(N2C(=S)N(c3ccc(C#N)c(C(F)(F)F)c3)C(=O)C2(C)C)cc1F + COc1c(OCCCN2CCOCC2)ccc2c3n(c(=NC(=O)c4cnc(N)nc4)nc12)CCN3 , is viability, T/C under 40%?
stdout: rule met

stdin: Bench note: check whether Cn1ncc(Cl)c1-c1cc(C(=O)NC(CN)Cc2cccc(F)c2)sc1Cl (stereo unspecified) + CC(Nc1ccc2c(c1)OCCn1cc(N3C(=O)OCC3C(F)F)nc1-2)C(N)=O shows viability, T/C below 40%
stdout: rule not met

stdin: hey, is viability, T/C for C#Cc1c(F)ccc2cc(O)cc(-c3ncc4c(N5CC6CCC(C5)N6)nc(OCC56CCCN5CC(F)C6)nc4c3F)c12 (stereo unspecified) + Cc1nc(NC(=O)N2CCCC2C(N)=O)sc1-c1ccnc(C(C)(C)C(F)(F)F)c1 lower than 40% or not?
stdout: rule not met

stdin: Problem: For the compound C=CC(=O)N1CCN(c2nc(=O)n(-c3c(C)ccnc3C(C)C)c3nc(-c4c(O)cccc4F)c(F)cc23)C(C)C1 (stereo unspecified) + COc1c(OCCCN2CCOCC2)ccc2c3n(c(=NC(=O)c4cnc(N)nc4)nc12)CCN3 , is viability, T/C under 40%?
stdout: rule met

stdin: Confirm or reject: viability, T/C of Cn1ncc(Cl)c1-c1cc(C(=O)NC(CN)Cc2cccc(F)c2)sc1Cl (stereo unspecified) + Cc1nc(NC(=O)N2CCCC2C(N)=O)sc1-c1ccnc(C(C)(C)C(F)(F)F)c1 lies strictly below 40%
stdout: rule not met

###

Test system: 313798-341-R-J2-PDC spheroids, viability
ASSAY PROCEDURE: Anticancer human tumor 313798-341-R-J2-PDC cell line growth inhibition [PI3K];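 also: spheroids exposed to compounds for seven days; 100% = DMSO vehicle control viability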
ASSAY CONDITIONS: second compound 0.316 µM; first compound 0.316 µM; active compounds read low; spheroids with HUVEC and MSC
Description: Combinatorial screen of targeted agents with the PI3K inhibitors inavolisib, alpelisib, duvelisib, and copanlisib in multi-cell type tumor spheroids A high-throughput screen of multi-cell type tumor spheroids was designed to identify active combinations of targeted small molecules and PI3K pathway inhibitors. […] Compounds. […] If the clinical Cmax for an agent had not been determined, the highest concentration tested was 10 microM. […]
MEASURED PROPERTY: viability, T/C (%)
Response body: numeric value in %, unit text excluded.

Cn1ncc(Cl)c1-c1cc(C(=O)NC(CN)Cc2cccc(F)c2)sc1Cl (stereo not given) + CC(Nc1ncnc2nc[nH]c12)c1cc2cccc(Cl)c2c(=O)n1-c1ccccc1	70.8

stdin: Dear colleague, I am looking for the recorded viability, T/C of the following molecule: C[C@@H](NC(=O)c1ncnc(N)c1Cl)c1ncc(C(=O)Nc2cc(C(F)(F)F)c(Cl)cn2)s1 + CC(Nc1ncnc2nc[nH]c12)c1cc2cccc(Cl)c2c(=O)n1-c1ccccc1
stdout: 101

stdin: Would you kindly share the measured viability, T/C for CC1(C)CCC(Nc2ncc(C(F)(F)F)c(-c3c[nH]c4c(P(C)(C)=O)c(C#N)ccc34)n2)CN1 (stereo not given) + COc1c(OCCCN2CCOCC2)ccc2c3n(c(=NC(=O)c4cnc(N)nc4)nc12)CCN3 ?
stdout: 12.2

stdin: Field request: viability, T/C | item: CCCS(=O)(=O)Nc1ccc(F)c(C(=O)c2c[nH]c3ncc(-c4ccc(Cl)cc4)cc23)c1F + CC(Nc1ncnc2nc[nH]c12)c1cc2cccc(Cl)c2c(=O)n1-c1ccccc1
stdout: 101

stdin: Record request: viability, T/C value, item C#Cc1c(F)ccc2cc(O)cc(-c3ncc4c(N5CC6CCC(C5)N6)nc(OCC56CCCN5CC(F)C6)nc4c3F)c12 (stereo not given) + CC(Nc1ccc2c(c1)OCCn1cc(N3C(=O)OCC3C(F)F)nc1-2)C(N)=O
stdout: 74.2
